test-protocol: NCI Yeast Anticancer Drug Screen. Data for the bub3 strain (AID 167)
condition-set: S. cerevisiae bub3 mutant strain, at 50.0 µM (retest, dose inferred, filed as 5.0), stronger effect = higher value
Compounds without any hit were thinned out: in the full panel of roughly 79,000, 15% have a hit.
value-kind: growth inhibition (%)

- Cc1ccc2nc(N/N=C/c3ccc(C)s3)cc(C)c2c1: -10
- Cn1c(COc2ccc(/C=N/NC(=O)CCC(=O)N/N=C/c3ccc(OCc4c[n+]5ccccc5n4C)cc3)cc2)c[n+]2ccccc12: 33
- CN(Cc1cccc2ccccc12)Cc1cccc2ccccc12: 87
- Cc1ccc(N(C=O)c2c([N+](=O)[O-])cc([N+](=O)[O-])c3c2=[N+]([O-])CN=3)cc1: 98
- OC1C#CCSCC#C/C=C\1 (stereo unspecified): 97
- N=c1oc2ccccc2cc1-c1nc2ccccc2[nH]1: 56

====

test-protocol: NCI Yeast Anticancer Drug Screen. Data for the rad50EPP+ strain (AID 151);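 further: 0% = growth of vehicle-treated control cultures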
condition-set: S. cerevisiae rad50 mutant strain, at 100.0 µM
Compounds without any hit were thinned out: in the full panel of roughly 79,000, 15% have a hit. The source made the active and inactive calls. No stated cut-off is given here; in the data, active means growth inhibition above about 70%; inactive means the rest.
Possible outcomes: active, inactive

• O=C(CSS(=O)(=O)O)c1ccccc1 = active
• Cc1nc2ccccc2c(=O)n1NC(=O)c1ccc(CS)cc1 = active
• COc1ccc2c(Cc3c4ccccc4cc4ccccc34)cncc2c1O = active
• CN(C)CCC(=O)c1c[nH]c2ccccc12 = inactive
• Cc1c2ccncc2c(C)c2c1oc1ccccc12 = active
• O=C(CCC(=O)c1ccc(O)cc1)Oc1ccc(O)cc1 = inactive
• C=Cc1c(C)c(O)cc2c1-c1ccc(O)c(C)c1CC2 = active
• Clc1ccc(C(c2ccc(Cl)cc2)N2CCNCC2)cc1 = inactive
• Cc1[nH]nc(C(F)(F)F)c1N=NN(C)C = active
• Cc1ccc(S(=O)(=O)N/N=C/c2c(O)ccc3ccccc23)cc1 = inactive
• Nc1c([N+](=O)[O-])cc2c3c(cccc13)CC2 = active
• [N-]=[N+]=NC1CC(n2ccc(=O)[nH]c2=O)OC1COC(c1ccccc1)(c1ccccc1)c1ccccc1 (configuration not stated) = inactive

====

test-protocol: NCI Yeast Anticancer Drug Screen. Data for the mec2-1 strain (AID 157)
condition-set: S. cerevisiae mec2-1 strain, at 33.0 µM, stronger effect = higher value
Compounds without any hit were thinned out: in the full panel of roughly 79,000, 15% have a hit.
Tag: yes if measured growth inhibition is not below 50%, no if it is.

* CCCCCCCCCCCCOC1C(COCCN2CCCC2)OC2OC(C)(C)OC21 (configuration not stated) | yes
* O=c1oc(C(C(F)(F)F)C(F)(F)F)nc2ccccc12 | no
* Cc1ccc(Cl)c2c(=O)c3ccccc3[nH]c12 | no
* CCCCCCCCCCCCCCCCCN | yes
* CCOC(=O)/C=C1\CCCn2c1ncc(C(=O)OCC)c2=O | no
* c1ccc(N/N=C2\CC(c3ccccc3)Oc3ccccc32)cc1 (configuration not stated) | no
* Nc1ccc2ncc(Nc3ccc(Cl)c(Cl)c3)nc2c1 | yes
* CC(=O)CC[N+](C)(C)C | no
* O=C(CSS(=O)(=O)O)c1ccccc1 | no
* CC(C)OC(CCC#N)c1ccc(Cl)cc1 (configuration not stated) | no
* Cc1ccnc(NS(=O)(=O)c2ccc(Nc3c4ccccc4nc4ccccc34)cc2)n1 | yes
* Cc1ccc2nc(N/N=C/c3ccc(C)s3)cc(C)c2c1 | yes
* CCOC(=O)C1=C(C)NC(C)=C(C(=O)OCC)C1c1ccc(Cl)cc1 | yes
* CCCCOc1ccc(Nc2c3ccccc3nc3ccccc23)cc1 | yes
* O=C1C=CC(=Nc2ccc3c(c2)Cc2cc(Cl)ccc2-3)O1 | yes
* CCC1SC(=S)N(c2ccc(Cl)cc2)C1=O (configuration not stated) | no
* Cc1c2ccncc2c(C)c2c1oc1ccccc12 | yes
* O=C(O)NCC1CCCCC1 (tested in a mixture with another compound) | no
* O=Cn1c2ccccc2c2ccccc21 | no
* COc1ccc(/C(=N/O)c2ccccc2C2=Nc3ccccc3C(NCc3ccccc3)O2)cc1C (configuration not stated) | no
* O=S(=O)(Oc1c(Cl)cc(Cl)cc1Cl)c1ccccc1 | no
* Cc1ccccc1C1=C(CC(=O)O)c2ccccc2CC1C (configuration not stated) | yes
* CCN(CC)c1ccc(N=Nc2cc(S(=O)(=O)O)ccc2O)c(O)c1 | no
* COc1ccc(/C=C2\CCc3ccccc3C2=O)cc1OC | no
* O=C(c1c(F)c(F)c(F)c(F)c1F)c1c(F)c(F)c(F)c(F)c1F | yes
* Nc1ccc2cc(Br)c3ccccc3c2c1 | no
* Cc1ccc(C(C)C)c(C(=C2C=CC(=[N+](C)C)C=C2)c2c(C(C)C)ccc(C)c2O)c1O | yes
* Cc1cc(N(CCOS(C)(=O)=O)CCOS(C)(=O)=O)ccc1C=O | no
* CN(C)CCNC(=O)c1cccc2nc3c4ccccc4c4ccccc4c3nc12 | yes
* N#C/C(=C1C=C/C(=N\O)C(Cl)=C\1)c1ccccc1 | no
* O=C1C(C(O)(C(F)(F)F)C(F)(F)F)CCC1C(O)(C(F)(F)F)C(F)(F)F (configuration not stated) | no
* Cc1nc2ccc(NCCN(C)C)c3c(=O)c4ccccc4n1c23 | no
* c1cc(Nc2ccc3c(c2)OCO3)c2cc(C3CCCCC3)ccc2n1 | no
* COc1ccc2cc(CN3CCC(C4CCN(Cc5ccc6cc(OC)ccc6c5)CC4)CC3)ccc2c1 | no
* C[Si](C)(C)Cc1ccccc1C(=O)O | no
* O=C(N/N=C/c1ccc2c(c1)CCC2)c1ccccc1[N+](=O)[O-] | no
* O=[N+]([O-])c1ccc2nnnn2c1 | no
* O=C(/C(=C/c1ccccc1)CBr)c1ccccc1 | yes
* Cc1cc(NCCCN(C)C)c2ccc3c(ccc4c(NCCCN(C)C)cc(C)nc43)c2n1 | no
* O=C1c2ccccc2C(=O)C1C(c1ccc(F)cc1)C1C(=O)c2ccccc2C1=O | no
* COc1cc(C(C)(C)C)cc(OC)c1C(O)(c1c(OC)cc(C(C)(C)C)cc1OC)c1c(OC)cc(C(C)(C)C)cc1OC | yes
* c1ccc2cc(OCC3CO3)c(OCC3CO3)cc2c1 (configuration not stated) | no
* CCOC(=O)c1[nH]c2cccc3c2c1CC(Br)C3=O (configuration not stated) | yes
* c1cncc(C(Nc2cccc3cccnc23)Nc2cccc3cccnc23)c1 | no
* CC(C)(C(=O)NN)c1ccccc1 | yes
* CCCC#CCOC(=O)c1cc([N+](=O)[O-])cc([N+](=O)[O-])c1 | yes

====

test-protocol: NCI Yeast Anticancer Drug Screen. Data for the rad50 strain (AID 155);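 further: 0% = growth of vehicle-only cultures of the same strain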
condition-set: S. cerevisiae rad50 strain growth inhibition; at 100.0 µM
Compounds without any hit were thinned out: in the full panel of roughly 79,000, 15% have a hit. Calls of active or inactive are those of the source. Rule as the data show it: active = growth inhibition above about 70%; inactive = the rest.
Possible outcomes: label 1 = active, label 0 = inactive

- COc1ccc(/C(=N/O)c2ccccc2C2=Nc3ccccc3C(NCc3ccccc3)O2)cc1C (stereo unspecified): label 1
- COC(=O)C1(N2CCOCC2)CCC([C@@H](c2ccccc2)C(C)[N+](=O)[O-])C1 (stereo partly specified): label 1
- CC(C)OC(CCC#N)c1ccc(Cl)cc1 (stereo unspecified): label 0
- Cc1ccc(Cl)c2c(=O)c3ccccc3[nH]c12: label 0
- CNC(=O)OCc1c(COC(=O)NC)c(C)n(-c2ccc(Cl)c(Cl)c2)c1C: label 1
- O=C1C=CC(=O)N1c1ccc(Br)cc1Cl: label 1
- c1ccc(N/N=C2\CC(c3ccccc3)Oc3ccccc32)cc1 (stereo unspecified): label 0
- Nc1nc(Nc2ccccc2)nc(Nc2ccccc2)n1: label 1
- CCCCOc1ccc(Nc2c3ccccc3nc3ccccc23)cc1: label 1
- CC[C@@]1(OC(=O)CN(C)C)C(=O)OCc2c1cc1n(c2=O)Cc2cc3ccccc3nc2-1: label 1
- Nc1ccc2cc(Br)c3ccccc3c2c1: label 0

====

test-protocol: NCI Yeast Anticancer Drug Screen. Data for the mlh1 strain (AID 171);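 further: 0% = growth of vehicle-treated control cultures of the same strain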
condition-set: S. cerevisiae mlh1 strain growth inhibition; at 11.0 µM
This is part of a sample that, as a whole, favours compounds with a hit. Of some 79,000 tested, about 15% had one in any assay. Activity calls are given as the source filed them. No stated cut-off is given here; in the data, active means growth inhibition above about 70%; inactive means the rest.
Possible outcomes: 1 for active, -1 for inactive

* CCN(CC)c1cccc(Nc2nc3ccccc3s2)c1 | -1
* CC[N+]1(C)CCC(O)(/C=C/c2ccc(Cl)c(Cl)c2)C(C(=O)/C=C/c2ccc(Cl)c(Cl)c2)C1 (stereo not drawn) | 1
* O=C1C=CC(=Nc2ccc3c(c2)Cc2cc(Cl)ccc2-3)O1 | 1
* CN1CCN(c2ccc3nc(-c4ccc5nc(-c6ccc(O)cc6)[nH]c5c4)[nH]c3c2)CC1 | 1
* CN(C)CCNC(=O)c1cccc2nc3c4ccccc4c4ccccc4c3nc12 | -1
* OC(c1ccc(Br)cc1)(c1cccs1)C1CC1 (stereo not drawn) | -1
* CN(C)CCC(=O)c1c[nH]c2ccccc12 | -1
* Cc1ccc(P(c2ccc(C)cc2)c2ccc(C)cc2)cc1 | -1
* Cc1nc2ccccc2c(=O)n1NC(=O)c1ccc(CS)cc1 | -1
* CCOC(=O)c1sc2[n+](c1C)C(=O)/C(=C/c1cc(OC)c(OC)c(OC)c1)S2 | -1
* O=C(CSS(=O)(=O)O)c1ccccc1 | -1
* CC1(C)CC(=O)C(C(CC(c2ccccc2)c2cc3c(cc2O)OCO3)C2=C(O)CC(C)(C)CC2=O)=C(O)C1 (stereo not drawn) | -1
* CC(C)OC(CCC#N)c1ccc(Cl)cc1 (stereo not drawn) | -1
* O=c1c(Br)cc2c(-c3ccccc3)c3cc(Br)c(O)c(Br)c3oc-2c1Br | -1
* Cc1cc(NC(=S)SCc2ccc(Cl)cc2)ccc1Cl | -1
* Oc1ccc(Cc2nccc3cc(O)c(O)cc23)cc1O | -1
* O=C1OC(c2ccc(Cl)cc2)Sc2ccccc21 (stereo not drawn) | -1
* Cc1cccc[c]1[Sn]([Cl])([S]/C(C#N)=N/N=C/c1ccc(N(C)C)cc1)[c]1ccccc1C | -1
* O=S(=O)(O)CC[S][Sn]([S]CCS(=O)(=O)O)([c]1ccccc1)[c]1ccccc1 | 1
* O=C1C(Br)=CC(Br)(Br)C=C1Br | -1
* COc1ccc(C(=O)OCCc2ccccc2)cc1 | -1
* c1ccc(N/N=C2\CC(c3ccccc3)Oc3ccccc32)cc1 (stereo not drawn) | -1
* Cc1nc2ccc(NCCN(C)C)c3c(=O)c4ccccc4n1c23 | -1

Measured values drawn from PubChem BioAssay (NCI) for this set.
